- Tested on: Mus musculus
- measurement-protocol: Ex vivo inhibition of the accumulation of (-)-[3H]Norepinephrine in slices from the middle part of the mouse brain. (i.p.)
- Assay type: functional
- test-settings: ip
Let's look at some molecules and their measured ED50.
result-type: ED50

>>> measured_result("CN(C)C/C=C(/c1ccc(Br)cc1)c1cccnc1 [ZIMELDINE]")
"> 98 µmol/kg"
>>> measured_result("CNC/C=C(\\c1ccc(Br)cc1)c1cccnc1 [NORZIMELIDINE]")
"25 µmol/kg"
>>> measured_result("CNCC/C=C(\\c1ccc(Br)cc1)c1cccnc1")
"98 µmol/kg"
>>> measured_result("CN(C)C/C=C(\\c1ccc(Br)cc1)c1cccnc1")
"25 µmol/kg"

====

Let's look at some compounds and their measured ED50.
- System: Mus musculus
- measurement-protocol: Ex vivo inhibition of the accumulation of (-)-[3H]Norepinephrine in slices from the middle part of the mouse brain. (i.p.)
- Assay type: functional
- test-settings: ip
result-type: ED50

>>> measured_result("CN(C)CC/C=C(\\c1ccc(Br)cc1)c1cccnc1")
"95 µmol/kg"
>>> measured_result("CNCCC=C1c2ccccc2CCc2ccccc21")
"67 µmol/kg"
>>> measured_result("CNCC/C=C(/c1ccc(Br)cc1)c1cccnc1")
"> 98 µmol/kg"
>>> measured_result("CN(C)CCC=C1c2ccccc2CCc2ccccc21")
"114 µmol/kg"
>>> measured_result("CN(C)CC/C=C(/c1ccc(Br)cc1)c1cccnc1")
"> 95 µmol/kg"
>>> measured_result("CNC/C=C(/c1ccc(Br)cc1)c1cccnc1")
"> 102 µmol/kg"
